biological target: Torsin-1A (Homo sapiens) (UniProt O14656); assay: small-molecule binders of mutant TOR1A in lysate, primary screen, cell lysate, small-molecule microarray, COS7 lysate, 635/667 nm fluorescence (AID 1150); details: COS7 hTOR1A mutant lysate, 635 nm fluorescence, higher = more signal;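 also: score pools 667 nm emission and signal to noise measuring lysate protein binding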
Sequence (O14656 whole entry, looked up): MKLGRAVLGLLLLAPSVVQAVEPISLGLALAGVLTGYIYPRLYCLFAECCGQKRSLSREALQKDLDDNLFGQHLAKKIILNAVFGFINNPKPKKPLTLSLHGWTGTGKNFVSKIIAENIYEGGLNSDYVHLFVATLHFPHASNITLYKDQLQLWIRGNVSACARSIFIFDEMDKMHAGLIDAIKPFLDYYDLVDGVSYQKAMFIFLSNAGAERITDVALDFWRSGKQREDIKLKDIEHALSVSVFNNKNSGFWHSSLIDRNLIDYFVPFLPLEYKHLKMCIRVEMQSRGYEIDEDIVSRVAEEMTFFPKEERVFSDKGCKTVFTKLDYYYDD
ENDPOINT: composite z-score

Solved cases below.
INSERT INTO results (compound, assayed_target, endpoint_result) VALUES
  ('[N-]=[N+]=NCc1ccccc1[C@H]1OC(c2ccc(OCCCO)cc2)=N[C@@]1(Cc1ccccc1N=[N+]=[N-])C(=O)O', 'Torsin-1A (Homo sapiens) (UniProt O14656)', 0.691),
  ('COc1ccc(C#Cc2ccc3c(c2)[C@]2(C(=O)N3)[C@H](c3ccccc3OCCO)N3[C@H](c4ccccc4)[C@H](c4ccccc4)OC(=O)[C@H]3[C@@H]2C(=O)NC[C@H](O)c2ccccc2)cc1', 'Torsin-1A (Homo sapiens) (UniProt O14656)', 0.701),
  ('CCOC(=O)C1=CCC(c2cccn2C(=O)OC(C)(C)C)N(S(=O)(=O)c2ccc(C)cc2)C1 (stereo not given)', 'Torsin-1A (Homo sapiens) (UniProt O14656)', 0.461),
  ('CC(C)c1ccc(NN2C(C(O)C(C)c3ccccc3)C=CC3C(=O)N(c4ccccc4)C(=O)C32)cc1 (stereo not given)', 'Torsin-1A (Homo sapiens) (UniProt O14656)', 1.12),
  ('C=CC[C@@]1(C(=O)NCCCOC)N=C(c2ccc(OCCCO)cc2)O[C@@H]1c1ccccc1CN=[N+]=[N-]', 'Torsin-1A (Homo sapiens) (UniProt O14656)', 0.734);

Request: What value of composite z-score has been reported for the following compound? "O=C1O[C@H](c2ccccc2)[C@H](c2ccccc2)N2[C@H]1[C@@H](C(=O)N1CCN(c3ncccn3)CC1)[C@]1(C(=O)Nc3ccc(C#CC4(O)CCCCCC4)cc31)[C@H]2c1ccc(O)cc1"
Response: 0.0774

Request: What value of composite z-score has been reported for the following compound? CC1C2C(CCCO)=CC(C3C(=O)N(C)C(=O)C23)N1Cc1cccc(OC(F)(F)F)c1 (stereo not given)
Response: 1.47

Request: What value of composite z-score has been reported for the following compound? "COC(=O)[C@@]1(Cc2ccc(F)cc2)[C@@H]2C(=CC(=O)[C@H]2CC(=O)C(=O)N2CCCC2)CN1C(=O)c1ccccc1"
Response: 1.01

Request: What value of composite z-score has been reported for the following compound? CC1CC/C=C\[C@H]2OC34C=CCN(C(C)C)C(=O)[C@H]3N(C(C)CO)C(=O)[C@@H]4C2C(=O)O1 (stereo not given in full)
Response: -0.381

Request: What value of composite z-score has been reported for the following compound? "COC(=O)[C@@]1(Cc2ccc(F)cc2)[C@H]2c3cc(C(=O)N4CCCC4)n(CCSCCO)c3C[C@H]2CN1C(=O)c1ccccc1"
Response: 0.301

Request: What value of composite z-score has been reported for the following compound? "COC(=O)[C@@]1(Cc2ccc(OC)cc2)[C@@H]2[C@@H](CC(=O)[C@H]2CC(=O)C(=O)N(C)C)CN1C(=O)c1ccccc1"
Response: 0.452

Request: What value of composite z-score has been reported for the following compound? "CO[C@H]1O[C@H](CO)[C@@H](OC(=O)Nc2cccc(F)c2)[C@H](OC(=O)Nc2ccc3c(c2)OCO3)[C@@H]1OC(=O)Nc1ccc2c(c1)OCO2"
Response: 1.21

Request: What value of composite z-score has been reported for the following compound? "Cc1ccc(S(=O)(=O)N2[C@@H](c3ccccc3)C(C(=O)O)=CC[C@H]2c2ccc(F)cc2)cc1"
Response: 1.64

Request: What value of composite z-score has been reported for the following compound? "C=CCN1C(=O)[C@@]2(O[C@@H](CCO)[C@H]([Si](C)(C)c3ccc(OC)cc3)[C@H]2C)c2cc(N3CCCCC3=O)ccc21"
Response: 0.417

Request: What value of composite z-score has been reported for the following compound? "COCCOC(=O)N1C(=O)[C@@]2(c3cc(C#CC4(O)CCCCCC4)ccc31)[C@H](C(N)=O)[C@H]1C(=O)O[C@H](c3ccccc3)[C@H](c3ccccc3)N1[C@@H]2c1ccc(OCCO)cc1"
Response: 0.637

----------
tested on: Human papillomavirus type 1a E7 protein (residues 1-88); test: HPV1a E7 small-molecule binders, primary screen, biochemical, small-molecule microarray, residues 1-88, 635 nm (AID 1129); conditions: small-molecule microarray binding, fluorescence 635 nm; higher = more signal
Output YES for composite z-score not less than 1; output NO otherwise.

Here's what some known entries look like.
INSERT INTO assay_data (molecule, assigned_category) VALUES
  ('Cc1ccc(N2C(=O)c3ccccc3[C@@H](C(=O)NCCN3CCOCC3)[C@@H]2c2ccc(CO)cc2)nc1', 'NO'),
  ('O=C1O[C@H](c2ccccc2)[C@H](c2ccccc2)N2[C@H]1[C@@H](C(=O)O)[C@]1(C(=O)Nc3ccccc31)[C@H]2c1ccc(OCCO)cc1', 'NO'),
  ('CCOC(=O)C1=CCC(c2cccn2C(=O)OC(C)(C)C)N(S(=O)(=O)c2ccc(C)cc2)C1 (configuration not stated)', 'YES'),
  ('CCCCC=C[C@@H](NC(=O)C(C)(C)C)c1ccccc1', 'YES'),
  ('COc1ccc([Si](C)(C)[C@H]2[C@H](CC(=O)N(CCO)Cc3ccccc3)O[C@@]3(C(=O)N(c4ccccc4)c4ccccc43)[C@@H]2C)cc1', 'YES');

Request: Determine whether measured composite z-score meets or exceeds 1 for CS(=O)(=O)CCOC(=O)C1=CC(CCCO)=CC(C2CC2)N(Cc2sc3ccccc3c2Cl)C=C1C(=O)OCCS(C)(=O)=O (configuration not stated)
Response: YES

Request: Determine whether measured composite z-score meets or exceeds 1 for "COC(=O)C(CC#Cc1ccc2c(c1)[C@]1(C(=O)N2)[C@H](c2ccc(OCCO)cc2)N2[C@H](c3ccccc3)[C@H](c3ccccc3)OC(=O)[C@H]2[C@@H]1C(N)=O)C(=O)OC"
Response: YES

----------
molecular target: Albumin (Bos taurus); assay: bovine serum albumin binders on microarray, profiling panel, artefact control for SMM control protein annotation, biochemical, small-molecule microarray, Alexa647 label, 635/667 nm fluorescence (AID 1118); conditions: BSA-A647 binding, fluorescence 635 nm, higher = more signal;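 also: score merges 667 nm emission intensity and signal-to-noise per printed compound spot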
ENDPOINT: composite z-score
When you answer, write just the number.

Solved cases below.
INSERT INTO measurements (compound, endpoint_result) VALUES
  ('CCOC(=O)C[C@H]1[C@H](OC(=O)c2cc3ccccc3oc2=O)[C@@H](NC(=O)Cc2ccc(OC)cc2)c2cc(OCCCO)ccc2N1C(=O)Cc1ccc(OC)cc1', 0.112),
  ('[N-]=[N+]=NCc1ccccc1[C@H]1OC(c2ccc(OCCCO)cc2)=N[C@@]1(Cc1ccccc1N=[N+]=[N-])C(=O)N1CCOCC1', 0.939);

Proceed to the following item.
Request: What value of composite z-score has been reported for the following compound? CN1C(=O)C2C=CC(C(O)c3ccc(I)cc3)N(N(c3ccccc3)c3ccccc3)C2C1=O (stereo not given)
Response: 0.626

----------
assay: P. aeruginosa biofilm formation inhibitors, primary screen, strain PAO1, LB-PBS medium, absorbance 600 nm (AID 1176); also: test concentration not given here; conditions: P. aeruginosa PAO1 growth/biofilm, A600, 12 h; higher = more signal
ENDPOINT: z-score
When you answer, write just the number.

INSERT INTO assay_data (compound, endpoint, endpoint_result) VALUES
  ('O=C1c2ccccc2[C@](Cc2ccccc2I)(C(=O)NCCN2CCOCC2)[C@H](c2ccc(CO)cc2)N1Cc1ccccc1C(F)(F)F', 'z-score', 0.0435),
  ('C=CC[C@]1(C(=O)NCCN2CCOCC2)N=C(c2ccc(OCCCO)cc2)O[C@H]1c1ccccc1', 'z-score', 0.509),
  ('CC1CC/C=C\[C@H]2OC34C=CCN(CCN5CCOCC5)C(=O)[C@H]3N(C(CO)C(C)C)C(=O)[C@@H]4C2C(=O)O1 (some centres undefined)', 'z-score', -0.869);

Proceed to the following item.
Request: What value of z-score has been reported for the following compound? "COCCCNC(=O)[C@@]1(Cc2ccccc2I)c2ccccc2C(=O)N(Cc2ccccc2C(F)(F)F)[C@H]1c1ccc(CO)cc1"
Response: -0.963

----------
experiment: A549 lung cancer cell viability effects, profiling panel, resazurin fluorescence, 24 h, PK04 Diversity Set (AID 1171); conditions: higher = more signal, called active from +8 up or from −8 down; also: test concentration not given here
Output yes for z-score not less than -0.1; output no otherwise.

INSERT INTO measurements (compound, assigned_category) VALUES
  ('CS(=O)(=O)CCOC(=O)C1=CC(CCCO)=CC(C2CC2)N(Cc2sc3ccccc3c2Cl)C=C1C(=O)OCCS(C)(=O)=O (centres undefined)', 'yes'),
  ('CC(=O)NCCCC[C@@H]1NC(=O)[C@H]2C[C@@H](C(=O)NCCCCCN)[C@@H](c3ccc(O)cc3)N2C1=O', 'yes'),
  ('[N-]=[N+]=Nc1ccccc1C[C@@]1(C(=O)NCc2ccccc2)N=C(c2ccc(OCCCO)cc2)O[C@@H]1c1ccccc1', 'yes'),
  ('[N-]=[N+]=NCc1ccccc1C[C@@]1(C(=O)NCCN2CCOCC2)N=C(c2ccc(OCCCO)cc2)O[C@@H]1c1ccccc1', 'no'),
  ('C[N+](C)(C)CCCC[C@@H]1NC(=O)[C@H]2C[C@@H](C(=O)O)[C@@H](c3ccc(O)cc3)N2C1=O', 'yes');

Request: Determine whether measured z-score meets or exceeds -0.1 for "COCCOC(=O)N1C(=O)[C@@]2(c3ccccc31)[C@H](C(=O)Nc1nc3ccccc3s1)[C@H]1C(=O)O[C@H](c3ccccc3)[C@H](c3ccccc3)N1[C@@H]2c1ccccc1OCCO"
Response: yes

Request: Determine whether measured z-score meets or exceeds -0.1 for "COc1ccc(-c2cc3c(c(CCc4ccccc4)n2)[Si](C(C)C)(C(C)C)O[C@H]3c2ccccc2)cn1"
Response: yes

Request: Determine whether measured z-score meets or exceeds -0.1 for CC(C)c1ccc(NN2C(C(O)C3CCCCC3)C=CC3C(=O)N(c4ccccc4)C(=O)C32)cc1 (centres undefined)
Response: no

Request: Determine whether measured z-score meets or exceeds -0.1 for "COc1ccc([Si](C)(C)[C@H]2[C@H](CC(=O)N(CCO)Cc3ccccc3)O[C@@]3(C(=O)N(c4ccccc4)c4ccccc43)[C@@H]2C)cc1"
Response: no
